src = patent US20250163167A1

Exercise: state measured Abs 630 (100 nM) for each of the binders provided.
# measurement-target: T1, human IL-10 receptor (hIL-10R alpha and beta chains) on HEK-Blue IL-10 reporter cells (human, UniProt Q13651 22-578; Q08334 20-325)
# T1 sequence 1: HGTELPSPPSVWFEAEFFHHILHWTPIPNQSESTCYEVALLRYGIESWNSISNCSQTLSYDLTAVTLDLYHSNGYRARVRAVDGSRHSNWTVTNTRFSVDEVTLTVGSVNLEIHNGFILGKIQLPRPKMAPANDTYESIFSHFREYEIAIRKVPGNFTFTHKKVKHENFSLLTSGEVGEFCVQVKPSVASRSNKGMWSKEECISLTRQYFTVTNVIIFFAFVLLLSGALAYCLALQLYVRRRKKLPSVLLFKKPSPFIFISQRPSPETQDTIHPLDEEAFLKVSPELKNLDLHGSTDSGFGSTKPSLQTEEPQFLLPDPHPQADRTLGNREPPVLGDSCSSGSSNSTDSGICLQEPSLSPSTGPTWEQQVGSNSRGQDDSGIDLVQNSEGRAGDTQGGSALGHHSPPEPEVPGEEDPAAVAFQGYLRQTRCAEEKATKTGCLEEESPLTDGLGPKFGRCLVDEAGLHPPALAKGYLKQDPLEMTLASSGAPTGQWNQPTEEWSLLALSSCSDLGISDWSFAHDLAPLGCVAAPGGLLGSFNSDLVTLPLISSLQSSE
# T1 sequence 2: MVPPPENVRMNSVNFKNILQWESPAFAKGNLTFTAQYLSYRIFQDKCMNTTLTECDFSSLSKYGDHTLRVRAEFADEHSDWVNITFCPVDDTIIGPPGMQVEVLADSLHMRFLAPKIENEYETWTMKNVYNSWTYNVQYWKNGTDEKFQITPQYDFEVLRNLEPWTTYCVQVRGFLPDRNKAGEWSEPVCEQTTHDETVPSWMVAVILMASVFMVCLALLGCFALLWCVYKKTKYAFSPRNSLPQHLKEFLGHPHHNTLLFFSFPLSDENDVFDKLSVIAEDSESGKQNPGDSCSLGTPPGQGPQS
# assay-name: cell-based or functional assay
Express the result in Abs 630 but write the number alone.

Look up Abs 630 (100 nM) of IL10R binding molecule of SEQ ID NO: 327 (bispecific antibody) QVQLQESGGGSVQAGGSLRLSCTVSRYTASVNYMGWFRQAPGKEREGVATIFTGAGTTYYANSVKGRFTISRDNAKNTAYLQMNSLKPEDTAIYYCAVDFRGGLLYRPAYEYTYRGQGTQVTVSSGGGSQVQLQESGGGSVQAGGSLRLSCAASRFTYSSYCMGWFRQAPGKEREGVASIDSDGSTSYTDSVKGRFTISKDNAKNTLYLQMNSLKPEDTAMYYCALDLMSTVVPGFCGFLLSAGMDYWGKGTQVTVSSASHHHHHH and report it.
0.54

Look up Abs 630 (100 nM) of IL10R binding molecule of SEQ ID NO: 293 (bispecific antibody) QVQLQESGGGSVQAGGSLRLSCGASGYTYSSYCMGWFRQVPGKEREGVAVIDSDGSTSYADSVKGRFTISKDNGKNTLYLQMNSLKPEDTAMYYCAADLGHYRPPCGVLYLGMDYWGKGTQVTVSSGGGSQVQLQESGGGSVQAGGSLRLSCAASRYTYNSYCMGWFRQAPGKEREGVATIDSDGMTRYADSVKGRFTISKDNAKNTLYLQMNSLKPEDTAMYYCAADADCTIAAMTTNPLGQGTQVTVSSASHHHHHH and report it.
0.43

Look up Abs 630 (100 nM) of IL10R binding molecule of SEQ ID NO: 301 (bispecific antibody) QVQLQESGGGSVQAGGSLRLSCAASGYSNCSYDMTWYRQAPGKEREFVSAIHSDGSTRYADSVKGRFFISQDNAKNTVYLQMNSLKPEDTAMYYCKTDPLHCRAHGGSWYSVRANYWGQGTQVTVSSGGGSQVQLQESGGGSVQAGGSLRLSCTVSRYTASVNYMGWFRQAPGKEREGVATIFTGAGTTYYANSVKGRFTISRDNAKNTAYLQMNSLKPEDTAIYYCAVDFRGGLLYRPAYEYTYRGQGTQVTVSSASHHHHHH and report it.
1.91
